Test system: 276233-004-R-J1-PDC KRAS spheroids with HUVEC/MSC, viability
Assay: Anticancer human tumor 276233-004-R-J1-PDC patient-derived colon adenocarcinoma cell line growth inhibition [KRAS2]
Details: second compound 0.1 µM; first compound 1 µM; active compounds read low
MEASUREMENT_KIND: viability, T/C (%)

>  <MOLECULE>
COC(=O)c1ccc2c(C(=Nc3ccc(N(C)C(=O)CN4CCN(C)CC4)cc3)c3ccccc3)c(O)[nH]c2c1 + C=CC(=O)N1CCN(c2nc(=O)n(-c3c(C)ccnc3C(C)C)c3nc(-c4c(O)cccc4F)c(F)cc23)C(C)C1

>  <UNIT_TAG>
%

>  <OBS_VALUE>
92.8

$$$$
>  <MOLECULE>
COC(=O)c1ccc2c(C(=Nc3ccc(N(C)C(=O)CN4CCN(C)CC4)cc3)c3ccccc3)c(O)[nH]c2c1 + CNCc1ccccc1-c1csc(C(C)Nc2nc(C)nc3cc(OC)c(OC)cc23)c1

>  <UNIT_TAG>
%

>  <OBS_VALUE>
70.1

$$$$
>  <MOLECULE>
COC(=O)c1ccc2c(C(=Nc3ccc(N(C)C(=O)CN4CCN(C)CC4)cc3)c3ccccc3)c(O)[nH]c2c1 + COc1cc2nc(C)nc(NC(C)c3cc(N)cc(C(F)(F)F)c3)c2cc1OC1CCOC1

>  <UNIT_TAG>
%

>  <OBS_VALUE>
83.1

$$$$
>  <MOLECULE>
Cn1nccc1Nc1nccc(-c2cc3c(s2)C(C)(C)N(CCN2CCOCC2)C3=O)n1 + C=CC(=O)N1CCN(c2nc(OCC3CCCN3C)nc3c2CCN(c2cccc4cccc(C)c24)C3)CC1CC#N

>  <UNIT_TAG>
%

>  <OBS_VALUE>
75.7

$$$$
>  <MOLECULE>
COc1cc(Nc2ncc3c(n2)-c2ccc(Cl)cc2C(c2c(F)cccc2OC)=NC3)ccc1C(=O)O + CC1OCC2(CCN(c3cnc(Sc4ccnc(N)c4Cl)c(N)n3)CC2)C1N

>  <UNIT_TAG>
%

>  <OBS_VALUE>
75.6

$$$$
>  <MOLECULE>
CC1COCCN1c1cc(-c2ccnn2C)c2ccnc(-c3ccn[nH]3)c2n1 (stereo unspecified) + COc1cc2nc(C)nc(NC(C)c3cc(N)cc(C(F)(F)F)c3)c2cc1OC1CCOC1

>  <UNIT_TAG>
%

>  <OBS_VALUE>
54.5

$$$$
>  <MOLECULE>
CC(C)NCC(C(=O)N1CCN(c2ncnc3c2C(C)CC3O)CC1)c1ccc(Cl)cc1 (stereo unspecified) + CNCc1ccccc1-c1csc(C(C)Nc2nc(C)nc3cc(OC)c(OC)cc23)c1

>  <UNIT_TAG>
%

>  <OBS_VALUE>
78.8

$$$$
>  <MOLECULE>
CC1OCC2(CCN(c3cnc(Sc4ccnc(N)c4Cl)c(N)n3)CC2)C1N (stereo unspecified) + C=CC(=O)N1CCN(c2nc(=O)n(-c3c(C)ccnc3C(C)C)c3nc(-c4c(O)cccc4F)c(F)cc23)C(C)C1

>  <UNIT_TAG>
%

>  <OBS_VALUE>
83.7

$$$$
>  <MOLECULE>
O=C(c1cc(Cc2n[nH]c(=O)c3ccccc23)ccc1F)N1CCN(C(=O)C2CC2)CC1 + CC1OCC2(CCN(c3cnc(Sc4ccnc(N)c4Cl)c(N)n3)CC2)C1N

>  <UNIT_TAG>
%

>  <OBS_VALUE>
81.8

$$$$
>  <MOLECULE>
COC(=O)c1ccc2c(C(=Nc3ccc(N(C)C(=O)CN4CCN(C)CC4)cc3)c3ccccc3)c(O)[nH]c2c1 + C=CC(=O)N1CCN(c2nc(OCC3CCCN3C)nc3c2CCN(c2cccc4cccc(C)c24)C3)CC1CC#N

>  <UNIT_TAG>
%

>  <OBS_VALUE>
71.7

$$$$
>  <MOLECULE>
CCNC(=O)CC1N=C(c2ccc(Cl)cc2)c2cc(OC)ccc2-n2c(C)nnc21 (stereo unspecified) + C=CC(=O)N1CCN(c2nc(OCC3CCCN3C)nc3c2CCN(c2cccc4cccc(C)c24)C3)CC1CC#N

>  <UNIT_TAG>
%

>  <OBS_VALUE>
60.2

$$$$

---

System: 276233-004-R-J1-PDC KRAS spheroids with HUVEC/MSC, viability
Experiment: Anticancer human tumor 276233-004-R-J1-PDC cell line growth inhibition [KRAS2];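 also: cells exposed to agents for seven days before viability read; 100% = DMSO vehicle control wells and lower values mean fewer viable cells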
Settings: second compound 0.316 µM; first compound 1 µM; active compounds read low
Source text: Multicellular complex tumor spheroid response to RAS pathway inhibitors in combination with a targeted agents in patient-derived cell lines with oncogenic KRAS variants from multiple cancer types A high-throughput screen of multi-cell type tumor spheroids was designed to identify active combinations of targeted small molecules and KRAS pathway inhibitors. […] Compounds. […] If the clinical Cmax for an agent had not been determined, the highest concentration tested was 10 microM. […]
MEASUREMENT_KIND: viability, T/C

>  <COMPOUND>
CCNC(=O)CC1N=C(c2ccc(Cl)cc2)c2cc(OC)ccc2-n2c(C)nnc21 (configuration not stated) + COc1cc2nc(C)nc(NC(C)c3cc(N)cc(C(F)(F)F)c3)c2cc1OC1CCOC1

>  <OBS_VALUE>
54.5%

$$$$
>  <COMPOUND>
CC1COCCN1c1cc(-c2ccnn2C)c2ccnc(-c3ccn[nH]3)c2n1 (configuration not stated) + CC1OCC2(CCN(c3cnc(Sc4ccnc(N)c4Cl)c(N)n3)CC2)C1N

>  <OBS_VALUE>
61.1%

$$$$
>  <COMPOUND>
CC1(C)CCC(CN2CCN(c3ccc(C(=O)NS(=O)(=O)c4ccc(NCC5CCOCC5)c([N+](=O)[O-])c4)c(Oc4cnc5[nH]ccc5c4)c3)CC2)=C(c2ccc(Cl)cc2)C1 + CC1OCC2(CCN(c3cnc(Sc4ccnc(N)c4Cl)c(N)n3)CC2)C1N

>  <OBS_VALUE>
81%

$$$$
>  <COMPOUND>
COC(=O)c1ccc2c(C(=Nc3ccc(N(C)C(=O)CN4CCN(C)CC4)cc3)c3ccccc3)c(O)[nH]c2c1 + CC1OCC2(CCN(c3cnc(Sc4ccnc(N)c4Cl)c(N)n3)CC2)C1N

>  <OBS_VALUE>
64.7%

$$$$
>  <COMPOUND>
CCN1CCN(Cc2ccc(Nc3ncc(F)c(-c4cc(F)c5nc(C)n(C(C)C)c5c4)n3)nc2)CC1 + CC1OCC2(CCN(c3cnc(Sc4ccnc(N)c4Cl)c(N)n3)CC2)C1N

>  <OBS_VALUE>
99.5%

$$$$
>  <COMPOUND>
CCNC(=O)CC1N=C(c2ccc(Cl)cc2)c2cc(OC)ccc2-n2c(C)nnc21 (configuration not stated) + CC1OCC2(CCN(c3cnc(Sc4ccnc(N)c4Cl)c(N)n3)CC2)C1N

>  <OBS_VALUE>
58.2%

$$$$
>  <COMPOUND>
O=C(c1cc(Cc2n[nH]c(=O)c3ccccc23)ccc1F)N1CCN(C(=O)C2CC2)CC1 + CNCc1ccccc1-c1csc(C(C)Nc2nc(C)nc3cc(OC)c(OC)cc23)c1

>  <OBS_VALUE>
85.3%

$$$$
>  <COMPOUND>
CC(=O)OC12COC1CC(O)C1(C)C(=O)C(O)C3=C(C)C(OC(=O)C(O)C(NC(=O)OC(C)(C)C)c4ccccc4)CC(O)(C(OC(=O)c4ccccc4)C21)C3(C)C (configuration not stated) + C=CC(=O)N1CCN(c2nc(OCC3CCCN3C)nc3c2CCN(c2cccc4cccc(C)c24)C3)CC1CC#N

>  <OBS_VALUE>
99%

$$$$
>  <COMPOUND>
CCNC(=O)CC1N=C(c2ccc(Cl)cc2)c2cc(OC)ccc2-n2c(C)nnc21 (configuration not stated) + C=CC(=O)N1CCN(c2nc(OCC3CCCN3C)nc3c2CCN(c2cccc4cccc(C)c24)C3)CC1CC#N

>  <OBS_VALUE>
76.2%

$$$$
>  <COMPOUND>
COc1cc(Nc2ncc3c(n2)-c2ccc(Cl)cc2C(c2c(F)cccc2OC)=NC3)ccc1C(=O)O + COc1cc2nc(C)nc(NC(C)c3cc(N)cc(C(F)(F)F)c3)c2cc1OC1CCOC1

>  <OBS_VALUE>
69.5%

$$$$
>  <COMPOUND>
COc1cc(Nc2ncc3c(n2)-c2ccc(Cl)cc2C(c2c(F)cccc2OC)=NC3)ccc1C(=O)O + C=CC(=O)N1CCN(c2nc(OCC3CCCN3C)nc3c2CCN(c2cccc4cccc(C)c24)C3)CC1CC#N

>  <OBS_VALUE>
67.8%

$$$$
>  <COMPOUND>
CC1(C)CCC(CN2CCN(c3ccc(C(=O)NS(=O)(=O)c4ccc(NCC5CCOCC5)c([N+](=O)[O-])c4)c(Oc4cnc5[nH]ccc5c4)c3)CC2)=C(c2ccc(Cl)cc2)C1 + C=CC(=O)N1CCN(c2nc(OCC3CCCN3C)nc3c2CCN(c2cccc4cccc(C)c24)C3)CC1CC#N

>  <OBS_VALUE>
126%

$$$$
